- Target system: SARS-CoV-2 spike glycoprotein subunit 1 (S1) (SARS-CoV-2)
- Method: BLI
- Condition parameters: SEQ 37 part DNA primer, selected region TNA 3'-2', all T = C5-benzyl carboxamide U (UPhe)
// boundary case: Kd equal to 30 nM maps to not satisfied; strictly smaller maps to satisfied

Examples with answers:
Primary sequence | Answer label
GTCCCCTTGGGGATACCACCATCGAGTTGTGACGTTAACGATAATAGCCCGCTCCGATTC [S1 Phe entry 13] | not satisfied
GTCCCCTTGGGGATACCACCAGGCTTATGAAATCTTATGTGAACCGGGCATACGGGCGAT [S1 Phe entry 4] | satisfied
GTCCCCTTGGGGATACCACCTACATTACGCGTTAGCGTTAATGGGTATGTCCGGACAGTG [S1 Phe entry 14] | not satisfied
GTCCCCTTGGGGATACCACCGGTGTAATAAGGAGAGTACGTCGTTTGGTGGGACCGGGTA [S1 Phe entry 15] | not satisfied

Read the next record carefully.
Just wondering, is Kd of GTCCCCTTGGGGATACCACCTGTACGCCATATAGGCAGTCATCGAGCAACGAAGTAATGG [S1 Phe entry 9] below 30 nM? satisfied

* * *

Below, each entry is listed with its recorded Kd.
- Target system: TNF-alpha (UniProt P01375)
- Sequence (P01375 77-233): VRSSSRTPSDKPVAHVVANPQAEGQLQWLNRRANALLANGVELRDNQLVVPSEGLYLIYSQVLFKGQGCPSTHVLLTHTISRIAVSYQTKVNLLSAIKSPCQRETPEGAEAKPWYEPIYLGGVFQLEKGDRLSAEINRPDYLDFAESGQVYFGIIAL
- Method: BLI
- Condition parameters: SEQ 37 part DNA primer, selected region TNA 3'-2', natural bases; 24 C, 2 mM CaCl2; R2 0.88
I only need the number, in nM, no unit after it.

Primary sequence | Kd, nM
GTCCCCTTGGGGATACCACCGCGGGGGGTGTTGTGTAACTGTTTTTTGCCGGAAAGACGC [TNF standard entry 1] | 42

Could you now look at the following sequence, please?
Return the recorded Kd value; entry: GTCCCCTTGGGGATACCACCCGCGGCGTTGCGTAGCGCCAATCCTGCACAGAGGCGGGCG [TNF standard entry 3] 141

* * *

- Target system: SARS-CoV-2 spike glycoprotein subunit 1 (S1) (SARS-CoV-2) (UniProt P0DTC2)
- Method: BLI
- Condition parameters: SEQ 37 part DNA primer, selected region TNA 3'-2', all T = C5-indole carboxamide U (UTrp; from doped Trp-1 library)
Observable: pKd
Please keep in mind that pKd is minus log10 of the molar concentration; only the number is needed.

Name the recorded pKd of the item GTCCCCTTGGGGATACCACCGCGGCCAGATCCCCGATATGTTAACGTCCTTTTATGCGGG [TNA 913] in your answer. 9.07

* * *

- Target system: SARS-CoV-2 spike glycoprotein subunit 1 (S1) (SARS-CoV-2) (UniProt P0DTC2)
- Method: BLI
- Condition parameters: SEQ 37 part DNA primer, selected region TNA 3'-2', all T = C5-indole carboxamide U (UTrp)
Reported pKd values for a set of sequences
Field pKd (float): negative decimal logarithm of the concentration in molar.

Look over these answered cases.
Primary sequence | Measured
GTCCCCTTGGGGATACCACCTAAGGAAAGGGGAGCGGGTAGGAGGTTCGTCGGGTGCGAC [S1 Trp entry 19] | 8.38
GTCCCCTTGGGGATACCACCTTTCTATGCATCTCGGGGATGCGGGATATAAAAGAGAGAC [S1 Trp entry 23] | 7.54
GTCCCCTTGGGGATACCACCAAACTGTTGGGACTTGTAATGTCGTCATCAGCTAAGAGTC [S1 Trp entry 22] | 7.68
GTCCCCTTGGGGATACCACCCGTACAACTCCGGTTTCGGGCGGCCCGTTCTTCAGTTTGA [S1 Trp entry 18] | 8.57

Retrieve pKd on SARS-CoV-2 spike glycoprotein subunit 1 (S1) (SARS-CoV-2) (UniProt P0DTC2); query GTCCCCTTGGGGATACCACCATTGTGCGAAGTATACATAGCAGATGCGTGACATAACAAG [S1 Trp entry 20] 8.29
